Biological target: T1, Mouse FGFR2 IIIb D1-3 (mouse)
T1 chain: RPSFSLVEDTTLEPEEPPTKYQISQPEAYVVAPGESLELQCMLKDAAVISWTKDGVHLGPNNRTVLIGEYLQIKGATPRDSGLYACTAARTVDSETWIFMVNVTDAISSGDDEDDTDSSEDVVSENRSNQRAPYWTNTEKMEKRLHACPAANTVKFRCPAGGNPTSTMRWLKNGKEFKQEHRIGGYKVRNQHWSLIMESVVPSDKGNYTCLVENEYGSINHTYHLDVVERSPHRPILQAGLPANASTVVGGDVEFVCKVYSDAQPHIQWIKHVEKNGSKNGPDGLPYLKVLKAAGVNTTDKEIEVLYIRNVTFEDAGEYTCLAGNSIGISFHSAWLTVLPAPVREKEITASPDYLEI
Assay: SPR Biacore, IgG captured via anti-human Fc, soluble FGFR as analyte
metric: Kd
Please answer using the number first and the unit second.

Endpoint output: Kd of mAb12439 (antibody, human IgG1, kappa, V domains shown, HuCAL human IgG1) VH: QVQLVQSGAEVKKPGASVKVSCKASGYTFTSYDISWVRQAPGQGLEWMGWINPYNGGTNYAQKFQGRVTMTRDTSISTAYMELSRLRSEDTAVYYCAREGSGMIVYPGWSYAFDYWGQGTLVTVSS VL: DIQMTQSPSSLSASVGDRVTITCRASQDISNDLGWYQQKPGKAPKLLIYAASSLQSGVPSRFSGSGSGTDFTLTISSLQPEDFATYYCQQHYHTPNTFGQGTKVEIKR . Value? 15 nM

# input binder: mAb11725 (antibody, human IgG1, lambda, V domains shown, HuCAL human IgG1) VH: QVQLLESGGGLVQPGGSLRLSCAASGFTFNTYWLHWVRQAPGKGLEWVSVISSDSSSTYYADSVKGRFTISRDNSKNTLYLQMNSLRAEDTAVYYCARDSRLDYWGQGTLVTVSS VL: DIELTQPPSVSVSPGQTASITCSGDSIGDTYVDWYQQKPGQAPVLVIYDDIDRPSGIPERFSGSNSGNTATLTISGTQAEDEADYYCYVYAWTGTSNVFGGGTKLTVLG ; wanted: its Kd 130 nM

GET /values?readout=Kd&item= mAb12947 (antibody, human IgG1, kappa, V domains shown, HuCAL human IgG1) VH: QVQLVQSGAEVKKPGSSVKVSCKASGGTFSSYAISWVRQAPGQGLEWMGSIQPTAGPARYAQKFQGRVTITADESTSTAYMELSSLRSEDTAVYYCARASLYSVATGSYWKVYHPFDSWGQGTLVTVSS VL: DIQMTQSPSSLSASVGDRVTITCRASQDIYSYLAWYQQKPGKAPKLLIYDASSLQSGVPSRFSGSGSGTDFTLTISSLQPEDFATYYCQQADQYPVTFGQGTKVEIKR 3.1 nM
